Each recorded value in this set is attributed to patent US20260242392A1.

target: Sting-HAQ (Homo sapiens, UniProt Q86WV6, G230A/H232R/R293Q/R71H); assay: HEK293-HAQ Luc reporter gene assay (Steady-Glo luciferase); conditions: 24 h incubation; read-out: HEK293-HAQ Luc Report Assay (24 h) EC50
Sequence (Q86WV6 whole entry R71H/G230A/H232R/R293Q): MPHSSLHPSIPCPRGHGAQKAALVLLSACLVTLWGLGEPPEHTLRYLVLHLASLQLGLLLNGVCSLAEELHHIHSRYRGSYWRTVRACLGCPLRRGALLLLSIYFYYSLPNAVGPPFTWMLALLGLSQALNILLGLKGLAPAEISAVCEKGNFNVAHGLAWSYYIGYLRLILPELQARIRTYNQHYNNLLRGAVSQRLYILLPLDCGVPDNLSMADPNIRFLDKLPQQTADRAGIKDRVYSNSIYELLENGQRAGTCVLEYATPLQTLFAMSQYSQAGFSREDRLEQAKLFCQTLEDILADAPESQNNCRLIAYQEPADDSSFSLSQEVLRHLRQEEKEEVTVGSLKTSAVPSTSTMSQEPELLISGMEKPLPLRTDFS
// reported pEC50 per item
Notebook: values listed as pEC50 are -log10 of the concentration (mol/L).

Some solved entries appear below for comparison.
COc1cc2sc(C(=O)CC(C)C(=O)O)c(C)c2c2ncoc12 (centres unmarked); 4.04
CC[C@@H](CC(=O)c1cc2c(cc(OC)c3oc(C)cc32)s1)C(=O)O; 6.62
COc1cc2sc(C(=O)C[C@H](C)C(=O)O)cc2c2ncoc12 [drawing 651]; 6.80
CCC(CC(=O)c1cc2c(cc(OC)c3ocnc32)s1)C(=O)O (centres unmarked); 6.51
Cn1cc2c(ccc3sc(C(=O)CCC(=O)O)cc32)n1; 4.38

Incoming: Can you share its pEC50? I mean this molecule: CCC(CC(=O)c1cc2c(cc(OC)c3occc32)s1)C(=O)O (centres unmarked)
Outgoing: 6.01

Incoming: Consider the molecule COc1cc2sc(C(=O)CCC(=O)O)cc2c2nc(C3CC3)oc12 and give its measured pEC50.
Outgoing: 4.04

Incoming: Can you share its pEC50? I mean this molecule: CC[C@@H](CC(=O)c1cc2c(cc(OC)c3ocnc32)s1)C(=O)O [drawing 659]
Outgoing: 6.52

Incoming: What value of pEC50 has been recorded for this entry: COc1cc2sc(C(=O)CC(C)C(=O)O)cc2c2ncoc12 (centres unmarked) [drawing 631]
Outgoing: 5.95

Incoming: Need pEC50, item COc1cc2sc(C(=O)CCC(=O)O)c(C)c2c2ccoc12
Outgoing: 4.53

Incoming: Any idea what pEC50 was measured for COc1cc2sc(C(=O)CCC(=O)O)c(C)c2c2ncoc12 ?
Outgoing: 4.24

Incoming: Give the measured pEC50 of COc1cc2sc(C(=O)C[C@@H](C)C(=O)O)cc2c2cc(F)oc12 .
Outgoing: 5.16

Incoming: # pEC50 lookup, item COc1cc2sc(C(=O)CCC(=O)O)cc2c2cc(C)oc12
Outgoing: 5.98

Incoming: Which value of pEC50 has been reported for CCC(CC(=O)c1cc2c(cc(OC)c3oc(C)cc32)s1)C(=O)O (centres unmarked) in the records?
Outgoing: 6.25

Incoming: For COc1cc2sc(C(=O)CCC(=O)O)c(C)c2c2cc(C)oc12 , what is its reported pEC50?
Outgoing: 4.72

Incoming: # lookup: pEC50 of COc1cc2sc(C(=O)CCC(=O)O)cc2c2ccoc12
Outgoing: 5.60

Incoming: Requested field: pEC50. Item: COc1cc2sc(C(=O)CC(C)C(=O)O)cc2c2cc(F)oc12 (centres unmarked)
Outgoing: 6.24

Incoming: # get_value(readout='pEC50', item= CC[C@@H](CC(=O)c1cc2c(cc(OC)c3oc(F)cc32)s1)C(=O)O )
Outgoing: 6.45

Incoming: If you can, please state the reported pEC50 value of COc1cc2sc(C(=O)C[C@@H](C)C(=O)O)cc2c2ncoc12 .
Outgoing: 5.24

###

experiment: Pharmacokinetic (PK) study in ICR mice, IV and PO; conditions: ICR, mouse, plasma, iv, 2 mg/kg
assay endpoint: clearance
Note: a bare number is incomplete; add the unit.

Recorded results for 3 compounds are shown here.
COc1cc2sc(C(=O)C[C@H](C)C(=O)O)cc2c2cc(C)oc12 [Example 32]; 8.98 mL/min/kg
CC[C@@H](CC(=O)c1cc2c(cc(OC)c3ocnc32)s1)C(=O)O [Compound 51]; 10.2 mL/min/kg
COc1cc2sc(C(=O)C[C@H](C)C(=O)O)cc2c2c(F)c(C)oc12 [Compound 59]; 6.03 mL/min/kg

Now, please, on to the next compound.
Incoming: Name the recorded clearance for COc1cc2cc(C(=O)CCC(=O)O)sc2cc1OC [MAS-2, reference compound] .
Outgoing: 33 mL/min/kg
